Conditions: basic group
Measured pKa by item
Field format: numeric only.

# Query Smiles, Recorded Number
rows = [
    ("COCc1nc(C)c[nH]1", 7.03),
    ("Nc1ccc(-c2ccc(/N=C/c3ccc(O)cc3)cc2)cc1", 6.86),
]

Lookup result for NNCCO ; measured pKa: 7.12

====

Measured pKa by item
Settings: acidic group

# Compound, Assay Endpoint, Result
data = [
    ("CC1(C)SC(=S)NC1=O", "pKa", 5.38),
    ("Cc1cc([O-])ccc1O", "pKa", 11.8),
    ("CCC(=O)c1cc(C(=O)C(C)(C)C)n[nH]1", "pKa", 9.7),
    ("Cc1c(O)cncc1C1CCCCC1", "pKa", 10),
    ("N#CC(C#N)=C(C(C#N)C#N)C(C#N)C#N", "pKa", 2.25),
]

Lookup result for Cc1cc(O)ccc1[N+](=O)[O-] ; measured pKa: 7.65

Lookup result for CSc1ccc(C(=O)O)cc1 ; measured pKa: 4.23

Lookup result for O=C([O-])/C=C\C(=O)NOCc1ccccc1 ; measured pKa: 10

Lookup result for O=c1[nH]ccc2nnnn12 ; measured pKa: 6.95

Lookup result for O=S(=O)([O-])c1c(O)ccc2cn[nH]c12 ; measured pKa: 9.45

====

Details: acidic group
Measured pKa by item

# Query Smiles, pKa
rows = [
    ("Cc1nc2c(n1C)C(=O)c1[nH]c(=O)[nH]c(=O)c1C2=O", 5.82),
    ("CC(=O)c1ccc(NN=C(C#N)C#N)cc1", 5.85),
]

Please examine the following record next.
Lookup result for O=S(=O)(Nc1ncccn1)c1ccccc1 ; measured pKa: 5.91

====

Details: basic group
Assay Endpoint: pKa
Field format: numeric only.

Worked set:
# Molecule, pKa
records = [
    ("C/C(=N\\O)NO", 4.95),
    ("CCN(CC)C(C)C(=O)Nc1c(C)cccc1C (centres undefined)", 8.11),
    ("Cc1cnc2c(c1)cc(C)c1cc(C)cnc12", 5.27),
    ("CN[C@H]1C[C@H]1NC", 8.73),
    ("Cn1cnc2nc(N)nc([O-])c21", 8.43),
    ("C[Si](C)(CN)O[Si](C)(C)CN", 10.3),
    ("OCc1nc2ncncc2[nH]1", 2.62),
    ("CCN1CCC[C@@H]1CNC(=O)c1c(OC)ccc(Cl)c1[O-]", 9.54),
    ("COC(=O)c1cccnc1", 3.23),
    ("Nc1nc[nH+]c(O)c1N", 1.34),
]

Lookup result for Cc1cc(C)c2ccc3cccnc3c2n1 ; measured pKa: 5.96

Lookup result for C[C@H](O)C(=O)C1=Nc2c([O-])nc(N)nc2NC1 ; measured pKa: 10.1

Lookup result for O=[N+]([O-])c1ccc2[nH]c(CO)nc2c1 ; measured pKa: 2.21

Lookup result for NCCCCN ; measured pKa: 10.6

Lookup result for Nc1cccnc1 ; measured pKa: 6.08

Lookup result for CN(C)C[C@@H]1[C@@H](N)[C@]2(C)CC[C@@H]1C2(C)C ; measured pKa: 9.45

Lookup result for NCCc1cccnc1 ; measured pKa: 9.44

Lookup result for CNC(C)CC1CCCCC1 (centres undefined) ; measured pKa: 10.5

Lookup result for CNc1ncnc2c1cnn2C ; measured pKa: 4.24

Lookup result for CCN(CC)N(CC)CC ; measured pKa: 7.31

Lookup result for CC(C=C(c1cccs1)c1cccs1)N1CCCCCCC1 (centres undefined) ; measured pKa: 7.52

Lookup result for NCC(=O)O ; measured pKa: 9.67

Lookup result for C[C@H]1[C@@H]([NH3+])[C@@H](C)[C@@H](N)[C@@H](C)[C@H]1[NH3+] ; measured pKa: 5.15

Lookup result for Nc1ccc2nc3cc(N)ccc3cc2c1 ; measured pKa: 8.11

Lookup result for [O-]c1ccnc([S-])[nH+]1 ; measured pKa: 7.75

Lookup result for COc1nc2ncncc2[nH]1 ; measured pKa: 3.14

Lookup result for [NH3+]CCCCc1cccnc1 ; measured pKa: 5.52

Lookup result for NCC(F)F ; measured pKa: 7.09
